test system: IGROV1 ovarian; assay: NCI tumour cell line growth inhibition, 48 h; in the data active = GI50 below about 0.43 µM; inactive = the rest
Outcomes: active, inactive

compound="C=CCC(N[C@H](CO)c1ccccc1)c1cn(S(=O)(=O)c2ccc(C)cc2)c2ccccc12 (some centres not stated)" category=inactive
compound=O=[N+]([O-])[O-].O=[N+]([O-])[O-].[Au].[Au].c1ccc([P-]c2ccccc2)cc1.c1ccc([P-]c2ccccc2)cc1 category=inactive
compound=O=C(CNc1ncco1)Nc1ccc(S(=O)(=O)c2ccc(NC(=O)CNc3ncco3)cc2)cc1 category=inactive
compound=NC(=S)N/N=C\c1nccc2c(N)cccc12 category=active
compound=COC(=O)OCc1ccc2c(c1)C(=O)c1c-2n(CCCBr)c(=O)c2cc([N+](=O)[O-])ccc12 category=inactive
compound=Cc1cc(C)n(C(=O)c2nn(-c3ccc(Cl)cc3)cc2O)n1 category=inactive
compound=COc1cc(NCc2ccccc2O)c2ncccc2c1 category=inactive

----------
The entries below are paired with their reported TGI.
tested on: A549 NSCLC; assay: NCI tumour cell line growth inhibition, 48 h
experimental endpoint: TGI

mol_smiles=COc1cc2c([C@@H](OC(=O)c3ccccc3)c3ccc4c(c3)OCO4)nccc2c(OC)c1OC experimental_endpoint=TGI readout_value="> 100 µM"
mol_smiles=COc1cc(Cl)c2c3c(c(C(=O)c4ccccc4)oc13)CCC2 experimental_endpoint=TGI readout_value="> 100 µM"
mol_smiles=O=C(NCCNCCNC(=O)C(F)(F)F)C(F)(F)F experimental_endpoint=TGI readout_value="> 100 µM"

----------
tested on: SN12C renal; assay: NCI tumour cell line growth inhibition, 48 h
experimental endpoint: TGI

compound="CCNc1nc2c(ncn2C2CC(O)C(COP(=O)(O)O)O2)c(=O)[nH]1 (centres undefined)" experimental_endpoint=TGI readout_value="> 100 µM"
compound=C#Cc1cccc(Oc2ccc(NC(=O)CCl)cc2)c1 experimental_endpoint=TGI readout_value="> 82.5 µM"
compound=Nc1ccc2ccc(NS(=O)(=O)N3CCCCC3)cc2c1 experimental_endpoint=TGI readout_value="> 100 µM"
compound="CC1C=C[C@H](Sc2ccccc2)CC[C@@]1(C)O (some centres undefined)" experimental_endpoint=TGI readout_value="> 100 µM"
compound="CSCCC(NC(=O)OCc1ccccc1)P(=O)(O)c1ccccc1 (centres undefined)" experimental_endpoint=TGI readout_value="> 100 µM"
compound="CC1(C)CCC[C@@]2(C)C1C(=O)[C@@H]1O[C@]1(C)[C@@H]2CO (some centres undefined)" experimental_endpoint=TGI readout_value="> 100 µM"
compound=Clc1ccc(C=NC23CC4CC(CC(C4)C2)C3)cc1Cl experimental_endpoint=TGI readout_value="> 10 µM"
compound=COC(=O)CCc1cccnc1/C=N/O experimental_endpoint=TGI readout_value="> 100 µM"
compound="CSc1nc2c(c(O)c(C)c(=O)n2C2OCC(OC(C)=O)C(OC(C)=O)C2OC(C)=O)c(=O)n1C (centres undefined)" experimental_endpoint=TGI readout_value="> 100 µM"

----------
Form field: TGI (one value per entry).
test system: OVCAR-4 ovarian; test: NCI tumour cell line growth inhibition, 48 h
experimental endpoint: TGI

molecule=COc1ccc(CCNC(=O)CCc2ccccc2CO)cc1OC readout_value="> 100 µM"
molecule=COc1ccc(/C=C/C(=O)c2cc3c(N)c(C(=O)Nc4ccccc4C)sc3nc2C)cc1 readout_value="> 50 µM"
molecule="CC(=O)OC1CC[C@@]2(C)C(C1)CC(OC(C)=O)[C@@H]1C2CC(OC(C)=O)[C@]2(C)C(C(C)CC=C(c3ccc(Cl)cc3)c3ccc(Cl)cc3)CCC12 (stereo partly drawn)" readout_value="> 100 µM"

----------
Measured TGI, listed per entry for reference.
system: CCRF-CEM leukemia; test: NCI tumour cell line growth inhibition, 48 h
experimental endpoint: TGI

compound=Cc1cnoc1NS(=O)(=O)c1ccc(Nc2nnc(/C=C/c3c(O)ccc4ccccc34)c(=O)n2N)cc1 experimental_endpoint=TGI readout_value="> 100 µM"
compound=Nc1cc(-c2ccc(Cl)cc2)nn1-c1nc2ccccc2nc1-c1ccccc1 experimental_endpoint=TGI readout_value="> 100 µM"
compound="Cc1ccc(NC(=O)C2C(=O)N(c3ccc(C)c(C)c3)C(=O)/C2=N\\NC(N)=S)cc1C (stereo not given)" experimental_endpoint=TGI readout_value="> 100 µM"
compound=CCN(CC)Cc1cc(Nc2c3ccccc3nc3c4ccccc4n(C)c23)ccc1O experimental_endpoint=TGI readout_value="6.44 µM"
compound="O=C(O)C(O)C(O)C(O)C(=O)CO (stereo not given)" experimental_endpoint=TGI readout_value="> 100 µM"
compound=COc1cc([C@@H]2c3cc4c(cc3[C@@H](c3c(O)cc(O)c5c3O[C@H](c3ccc(O)c(O)c3)[C@H](OC(=O)c3cc(O)c(O)c(O)c3)C5)[C@H]3COC(=O)[C@H]23)OCO4)cc(OC)c1OC experimental_endpoint=TGI readout_value="16.2 µM"
compound=COc1cc2c([C@@H](OC(=O)c3ccccc3)c3ccc4c(c3)OCO4)nccc2c(OC)c1OC experimental_endpoint=TGI readout_value="> 100 µM"
compound=C(=C\c1nccc2c1[nH]c1ccccc12)/c1ccccc1 experimental_endpoint=TGI readout_value="6.03 µM"
compound="C[C@]12C3CC[C@@]4(CO)C[C@]3(CCC1[C@](C)(C(=O)O)CC[C@@H]2O)CC4=O (stereo not given in full)" experimental_endpoint=TGI readout_value="> 100 µM"
compound=C/C1=C/C(=O)O[C@@H]2C[C@@H](CC[C@H](C)/C=C\C=C\CC1)O[C@@](OCCc1ccccc1)([C@@H]1CSC(=O)N1)C2 experimental_endpoint=TGI readout_value="> 17.5 µM"
compound="CC(O)(CNS(=O)(=O)c1ccccc1)c1ccccc1 (stereo not given)" experimental_endpoint=TGI readout_value="> 100 µM"
compound="Cc1c2n(c3ccccc13)CC1CON(C)C21 (stereo not given)" experimental_endpoint=TGI readout_value="> 100 µM"
compound=COc1cc(Cl)c2c3c(c(C(=O)c4ccccc4)oc13)CCC2 experimental_endpoint=TGI readout_value="> 100 µM"
compound="CCC1(N=[N+]=[N-])C(=O)c2ccccc2N(c2ccccc2)C1=O (stereo not given)" experimental_endpoint=TGI readout_value="> 100 µM"
compound="CCOC(=O)CCC(NC(=O)c1ccc(Nc2cnc3ccc(C(F)(F)F)cc3n2)cc1)C(=O)OCC (stereo not given)" experimental_endpoint=TGI readout_value="> 100 µM"
compound=COc1ccc(/C=C/C(=O)c2cc3c(N)c(C(=O)Nc4ccccc4C)sc3nc2C)cc1 experimental_endpoint=TGI readout_value="> 50 µM"
compound="O=C(O)C1(Cc2ccc3c(c2)CCC3)Cc2ccccc2C1=O (stereo not given)" experimental_endpoint=TGI readout_value="> 100 µM"
compound=COC(=O)NC(=O)c1cn(CCCOC(=O)CCCCCCCCC(=O)OCCCn2cc(C(=O)NC(=O)OC)c(=O)[nH]c2=O)c(=O)[nH]c1=O experimental_endpoint=TGI readout_value="> 100 µM"
compound=N#Cc1c(N)nc2c(c1-c1ccc(Br)cc1)CSc1ccccc1-2 experimental_endpoint=TGI readout_value="92 µM"
compound="CCCCCCCCCCCCCC(=O)C(C)N (stereo not given)" experimental_endpoint=TGI readout_value="27.2 µM"
compound=O=C(CNc1ncco1)Nc1ccc(S(=O)(=O)c2ccc(NC(=O)CNc3ncco3)cc2)cc1 experimental_endpoint=TGI readout_value="5.91 µM"
compound=O[C@H]1[C@H]2[C@H](O)C[C@H](CCOCc3ccccc3)CN2C[C@H]1O experimental_endpoint=TGI readout_value="> 100 µM"
compound="CCCC(=O)OCC1OC(n2cc(F)c(=O)[nH]c2=O)C(F)C1OC(=O)CCC (stereo not given)" experimental_endpoint=TGI readout_value="> 100 µM"
compound=CCOC(=O)c1[nH]c(CN(C)Cc2[nH]c(C(=O)OCC)c(C)c2C(=O)OCc2ccccc2)c(C(=O)OCc2ccccc2)c1C experimental_endpoint=TGI readout_value="> 100 µM"
compound=COc1cc(-c2cc(/C=C3\C(=O)Nc4ccccc43)[nH]n2)cc(OC)c1OC experimental_endpoint=TGI readout_value="6.96 µM"
compound=Cc1cc(=O)[nH]c(/N=C(\N)Nc2ccc(Cl)cc2)n1 experimental_endpoint=TGI readout_value="> 100 µM"
compound=COc1ccc(NC(=O)CC(=O)N/N=C/c2ccc(N(CCC#N)S(=O)(=O)c3ccccc3)cc2)cc1 experimental_endpoint=TGI readout_value="> 100 µM"
compound=Cc1nc2c(n1CCN(C)C)C(=O)c1ccccc1C2=O experimental_endpoint=TGI readout_value="47.1 µM"
compound=CCOC(=O)/C(C[C@H]1OC(C)(C)O[C@@H]1[C@H]1COC(C)(C)O1)=N/O experimental_endpoint=TGI readout_value="> 100 µM"
compound="Cc1ccc(CC(Cc2ccc(C)cc2C(=O)O)C(=O)O)cc1 (stereo not given)" experimental_endpoint=TGI readout_value="> 100 µM"
